Values from PubChem BioAssay (EPA / NIEHS)

# Read-out: Interleukin-1 alpha (IL1a), IL1A (gene 3552)
# measurement_description: BSK_BE3C_IL1a: BioMAP Diversity Plus: BE3C Assay for Interleukin-1 alpha (IL1a) Biomarker Activity (AID 2283016)
# applied_conditions: primary human bronchial epithelial cells; actives raise or lower the signal
The source made the active and inactive calls. Rule for the calls: active = hit-call score of the fitted dose curve at least 0.9, where 1 is the maximum; inactive = score below 0.9.
Pick one and only one: active, inactive

compound=NC(=O)C(F)(F)C(F)(F)C(F)(F)C(F)F cat=inactive

**Q:** For this compound, state the assay outcome: CCN(CC)c1ccc2c(c1)Oc1cc(N(CC)CC)ccc1C21OC(=O)c2ccccc21
**A:** inactive

**Q:** Please indicate how the test categorized O=C(O)CCC(F)(F)C(F)(F)C(F)(F)C(F)(F)C(F)(F)C(F)(F)C(F)(F)F .
**A:** inactive

**Q:** # lookup: test call for Brc1nc2ccccc2s1
**A:** inactive

**Q:** What was the test verdict on Cc1ccc(S(=O)(=O)C(I)I)cc1 ?
**A:** active

**Q:** Outcome logged for OC(O)C(F)(F)C(F)(F)F in this assay:
**A:** inactive

**Q:** Assay outcome for CCN(CC)c1ccc(C=O)cc1 : what was it?
**A:** inactive

**Q:** What did this assay record as the result for Cc1cnccn1 ?
**A:** inactive

**Q:** Call for entry COC(F)(C(F)F)C(F)(F)F (stereo not drawn) :
**A:** inactive

**Q:** What did this assay record as the result for CCN(CC)c1ccc(C=O)c(O)c1 ?
**A:** inactive

**Q:** So what was the verdict on CC1=CC2C3C=CC(C3)C2C1C (stereo not drawn) in this test?
**A:** inactive

**Q:** Please indicate how the test categorized CC(C)(C)c1cc(CCC(=O)NCCCCCCNC(=O)CCc2cc(C(C)(C)C)c(O)c(C(C)(C)C)c2)cc(C(C)(C)C)c1O .
**A:** inactive

**Q:** // outcome(item) with item = CCOC(C=C(C)CCC=C(C)C)OCC
**A:** active

----------
# Read-out: CD69, CD69 (gene 969)
# measurement_description: BSK_SAg_CD69: BioMAP Diversity Plus: SAg Assay for CD69 Biomarker Activity (AID 2283089)
# applied_conditions: primary human HUVEC with PBMC; actives raise or lower the signal
Active and inactive are the calls of the source. How the source made its calls: active means hit-call score of the fitted dose curve at least 0.9, where 1 is the maximum; inactive means score below 0.9.
Your reply should match one of these outcome classes. active, inactive

The following molecules have reported results that may help.
item_smiles=O=C(Cl)C(F)(F)C(F)(F)C(F)(F)C(F)(F)C(F)(F)C(F)(F)F cat=inactive
item_smiles=OCCCCC(F)(F)C(F)(F)C(F)(F)C(F)(F)F cat=inactive
item_smiles=NC(=O)C(F)(F)C(F)(F)C(F)(F)C(F)F cat=inactive

**Q:** Test call, this molecule: Cc1ccc(O)c(-n2nc3ccccc3n2)c1
**A:** inactive

**Q:** Identify the outcome logged in this assay for the molecule shown: Cc1cc(O)c(C(C)(C)C)cc1C(C)(C)C
**A:** active

**Q:** Per the records of this test, what outcome belongs to O=C(O)C(F)(F)C(F)(F)C(F)(F)OC(F)(F)F ?
**A:** inactive

**Q:** Could you check what this test reported for NC(=O)C(F)(F)C(F)(F)C(F)(F)C(F)(F)C(F)(F)C(F)(F)C(F)(F)F ?
**A:** inactive

**Q:** Could you kindly confirm the outcome this assay logged for NCC(F)(F)C(F)(F)C(F)(F)C(F)(F)C(F)(F)C(F)(F)F ?
**A:** inactive

**Q:** Field: outcome | Entry: O=C1C=CC(=O)N1c1ccc(Cc2ccc(N3C(=O)C=CC3=O)cc2)cc1
**A:** active

**Q:** Which outcome did this test record for the molecule OCC(F)(F)C(F)(F)C(F)(F)CO ?
**A:** inactive

**Q:** For C[Si](Cl)(Cl)CCC(F)(F)C(F)(F)C(F)(F)C(F)(F)C(F)(F)C(F)(F)F , what call appears in the results of this test?
**A:** inactive

----------
# measurement_description: ATG_DR4_LXR_CIS: Attagene CIS-FACTORIAL HepG2 Assay for human Liver X Receptor (LXR), DR4 submotif (AID 2282929)
# applied_conditions: HepG2 Attagene DR4 cis-reporter, mRNA transcription; actives raise or lower the signal
The source made the active and inactive calls. Rule for the calls: active = hit-call score of the fitted dose curve at least 0.9, where 1 is the maximum; inactive = score below 0.9.
Assign a class; possible classes are label 1 for active, label 0 for inactive

Solved cases below.
compound=O=S(=O)(Cl)C(F)(F)C(F)(F)C(F)(F)C(F)(F)C(F)(F)C(F)(F)C(F)(F)C(F)(F)F cat="label 0"
compound=O=C=NCc1cccc(CN=C=O)c1 cat="label 0"
compound=O=C1c2c(O)ccc(Nc3ccc(CCO)cc3)c2C(=O)c2c([N+](=O)[O-])ccc(O)c21 cat="label 0"
compound=CCCCOC(=O)[C@H](C)O cat="label 0"

**Q:** For O=C(O)C(F)(F)C(F)(F)C(F)(F)OC(F)(F)F , what call appears in the results of this test?
**A:** label 0

**Q:** Assay outcome for CCCCC(CC)COC(=O)c1ccc(N(C)C)cc1 (stereo not given) : what was it?
**A:** label 1

**Q:** # outcome recorded in this test, key = OCCCCC(F)(F)C(F)(F)C(F)(F)C(F)(F)F
**A:** label 0

**Q:** What is the recorded call for this compound in the test? CCN=C1C=CC(=C(c2ccc(N(CC)CC)cc2)c2ccc(N(CC)CC)cc2)c2ccccc21
**A:** label 1

**Q:** Tell me the recorded outcome of this test for Oc1ccc(C2(c3ccc(O)c(C4CCCCC4)c3)CCCCC2)cc1C1CCCCC1 .
**A:** label 1

**Q:** Entry Cc1cc(O)c(C(C)(C)C)cc1C(C)(C)C : call = ?
**A:** label 0

**Q:** Status in this test for CC(=O)CCC(C)C ?
**A:** label 0

**Q:** Outcome? Nc1cccnc1N
**A:** label 1

**Q:** Check the results log: what was the call for Cc1cccc(C)n1 ?
**A:** label 0

**Q:** So what was the verdict on O=C1c2ccccc2C(=O)c2c(Cl)cccc21 in this test?
**A:** label 0

**Q:** # fetch the recorded call for CCN(CC)c1ccc2c(c1)Oc1cc(N(CC)CC)ccc1C21OC(=O)c2ccccc21 here
**A:** label 0

**Q:** What is the recorded call for this compound in the test? CCCCCCCCCc1ccc(OCCO)cc1
**A:** label 1

**Q:** Status in this test for F[Si-2](F)(F)(F)(F)F ?
**A:** label 0

**Q:** Recorded test call requested for CC(=O)C=O
**A:** label 0

**Q:** For this compound, state the assay outcome: C[Si](Cl)(Cl)CCC(F)(F)C(F)(F)C(F)(F)C(F)(F)C(F)(F)C(F)(F)F
**A:** label 0

**Q:** Identify the outcome logged in this assay for the compound shown: CCN=c1cc2oc3cc(NCC)c(C)cc3c(-c3ccccc3C(=O)OCC)c-2cc1C
**A:** label 1

**Q:** Dear all, I need the recorded test outcome for CCC/C=C/CO , thank you.
**A:** label 0

----------
# Read-out: Monocyte Chemoattractant Protein-1 (MCP1), CCL2 (gene 6347)
# measurement_description: BSK_SAg_MCP1: BioMAP Diversity Plus: SAg Assay for Monocyte Chemoattractant Protein-1 (MCP1) Biomarker Activity (AID 2283090)
# applied_conditions: primary human HUVEC with PBMC; actives raise or lower the signal
Activity calls are given as the source filed them. Rule for the calls: active = hit-call score of the fitted dose curve at least 0.9, where 1 is the maximum; inactive = score below 0.9.
Permitted responses: active, inactive

Record excerpt, results attached:
compound=C=CC(=O)OCC(F)(F)C(F)(F)C(F)(F)C(F)(F)C(F)(F)C(F)(F)C(F)(F)C(F)F cat=inactive
compound=CN(C(=O)C(F)(F)C(F)(F)C(F)(F)F)[Si](C)(C)C cat=inactive
compound=O=C=Nc1cccc2c(N=C=O)cccc12 cat=inactive
compound=OCC(F)(F)C(F)(F)C(F)(F)C(F)(F)C(F)(F)C(F)(F)C(F)(F)C(F)(F)CO cat=inactive
compound=Brc1nc2ccccc2s1 cat=inactive
compound="OCC(O)CC(F)(F)C(F)(F)C(F)(F)C(F)(F)C(F)(F)C(F)(F)C(F)(F)C(F)(F)F (stereo unspecified)" cat=inactive
compound=CCOC(C=C(C)CCC=C(C)C)OCC cat=inactive
compound=Cc1cc(O)c(C(C)(C)C)cc1C(C)(C)C cat=active
compound=O=C(O)CCC(F)(F)C(F)(F)C(F)(F)C(F)(F)C(F)(F)C(F)(F)C(F)(F)F cat=inactive
compound=Cc1cc(C)c(O)c(C(C)(C)C)c1 cat=active

Shift focus to the following entry.
**Q:** Dear all, I need the recorded test outcome for CCN(CC)c1ccc(N=Nc2ccccc2)cc1 , thank you.
**A:** active

----------
# measurement_description: BSK_4H_Eotaxin3: BioMAP Diversity Plus: 4H Assay for Eotaxin 3 Biomarker Activity (AID 2283000);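 note: CCL26 protein level quantified by ELISA in parallel with SRB cytotoxicity check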
# applied_conditions: primary human endothelial cells (HUVEC); actives raise or lower the signal
Activity calls are given as the source filed them. The calls were made as follows: active = hit-call score of the fitted dose curve at least 0.9, where 1 is the maximum; inactive = score below 0.9.
Log the outcome using a class from active, inactive

Below, 5 molecules whose answers are already recorded.
molecule=O=S(=O)(OCC(F)(F)F)C(F)(F)C(F)(F)C(F)(F)C(F)(F)F cat=inactive
molecule=CCN(CC)c1ccc(C=O)c(O)c1 cat=inactive
molecule=O=S(=O)(O)CCC(F)(F)C(F)(F)C(F)(F)C(F)(F)F cat=inactive
molecule=O=C=Nc1cccc2c(N=C=O)cccc12 cat=inactive
molecule="OCC(O)CC(F)(F)C(F)(F)C(F)(F)C(F)(F)F (stereo not drawn)" cat=inactive

Continue with the next molecule.
**Q:** // outcome(item) with item = O=C(O)C(F)(F)OC(F)(F)C(F)(F)OC(F)(F)C(F)(F)OC(F)(F)F
**A:** inactive
